Reported pKi values are given for each entry in this list.
Biological target: T1, human recombinant GIP receptor (human, UniProt P48546 22-466)
T1 construct: whole, on cells; Membranes of CHO-K1 cells expressing the receptor; also called hGIP receptor
T1 sequence (looked up): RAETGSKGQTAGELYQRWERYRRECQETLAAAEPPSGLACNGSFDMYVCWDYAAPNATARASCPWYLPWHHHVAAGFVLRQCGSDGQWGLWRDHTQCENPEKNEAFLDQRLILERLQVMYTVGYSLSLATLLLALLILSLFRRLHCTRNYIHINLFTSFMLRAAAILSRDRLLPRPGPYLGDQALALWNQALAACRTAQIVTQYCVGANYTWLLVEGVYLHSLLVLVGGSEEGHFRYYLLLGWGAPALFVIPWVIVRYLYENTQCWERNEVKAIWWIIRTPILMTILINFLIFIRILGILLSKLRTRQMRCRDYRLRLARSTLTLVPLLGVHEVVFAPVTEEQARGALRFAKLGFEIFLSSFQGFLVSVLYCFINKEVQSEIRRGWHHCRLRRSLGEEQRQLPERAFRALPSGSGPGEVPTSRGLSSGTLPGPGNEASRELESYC
Assay: [125I]GIP competition, membranes of CHO-K1 cells expressing human GIP receptor
Where no end group is shown, it is not given here. [ ]: non-standard residue; d: D form. Ac5c = NC1(C(=O)O)CCCC1; Aib = CC(C)(N)C(=O)O
The value called pKi is obtained by taking minus log10 of the concentration in mol/L.

Field: example entries. Status: answers known.
Y[Aib]EGTF[Ac5c]SDYSIAMDKIHQQDFVNWLLAQKGKKNDWKHNITQ-OH [(Aib^2, A5c^7)hGIP(1-42)-OH]; 9.39
YXEGTFISDYXIAMDKIHQQDFVNWLLAQKGKKNDWKHNITQ (Aib at 2 and 11; C-terminal free acid) [(Aib^2, 11)hGIP(1-42)-OH]; 8.92
YXEGTFISDYSXAMDKIHQQDFVNWLLAQKGKKNDWKHNITQ (Aib at 2; A5c at 12; C-terminal free acid) [(Aib^2, A5c^12)hGIP(1-42)-OH]; 8.78
YAEGTFISDYXIAXDKIHQQDFVNWLLAQKGKKNDWKHNITQH (D-Ala at 2; A5c at 11; Nle at 14; C-terminal free acid, X stands for the non-natural residue) [(D-Ala^2, A5c^11, Nle^14, His^43)hGIP(1-43)-OH]; 9.18

// next item, pKi requested
Input: Look at this binder and give its reported pKi. YAEGTFISDYXIAXDKIHQQDFVNWLLAQKGKKNDWKHNIXQ (D-Ala at 2; A6c at 11, 14 and 41; C-terminal free acid, X stands for the non-natural residue) [(D-Ala^2, A6c^11, 14, 41)hGIP(1-42)-OH]
Output: 8.18
